Numbers sourced from PubChem BioAssay (NCATS).

- targetOrSystem: Thyrotropin-releasing hormone receptor (Homo sapiens)
- assayDetails: qHTS for Small Molecule Agonists and Allosteric Enhancers of Human TRH Receptor: Validation Screen for Agonists (AID 493127);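 also: intracellular calcium rise by fluo-8 fluorescence before TRH EC20 addition; 0% is about no effect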
- conditions: TRH receptor agonist cell assay; at 2 µM; hits give high values
- Procedure: NIH Chemical Genomics Center [NCGC] NIH Molecular Libraries Probe Centers Network [MLPCN] Assay Submitter (PI): Marvin Gershengorn […] For the HTS assay freshly prepared cells are plated at a density of 2000/well in 3 ul of complete DMEM medium containing 10% serum in 1536-well plates and cultured over night at 37 C in a humidified incubator with 5% CO2. […] For the assay, assay plates were loaded into the FDSS kinetic plate reader. […]
endpointLabel: activation (%)
Give bare numbers, in %.

- NC(N)=N[C@@H](CCC(=O)O)C(=O)O: 0.0625
- CCCCCCCCCCCCCCCCCCOC[C@H](COP(=O)([O-])OCC[N+](C)(C)C)OC: 0.938
- NC/C=C\C(=O)O: 0.75
- N#Cc1cc2nc(O)c(O)nc2cc1[N+](=O)[O-]: -2.94
- O=c1ccn([C@@H]2O[C@H](COP(=O)(O)OP(=O)(O)O)[C@@H](O)[C@H]2O)c(=O)[nH]1: 0.188

Note: attention shifts to another entry.
Measured activation, c1ccc2nc(C3=NCCN3)ccc2c1 : 0.0625

----------
- targetOrSystem: Rap guanine nucleotide exchange factor 4 (Homo sapiens)
- assayDetails: Confirmatory qHTS for antagonist of cAMP-regulated guanine nucleotide exchange factor 4 (EPAC2) (AID 1645885); also: nearly all actives have a fitted effect of over 25% in size
- conditions: EPAC2 Rap1B-BODIPY-GDP exchange fluorescence, biochemical; series mostly up to 114 µM
Inconclusive results are not listed. Active and inactive are the calls of the source. Calls follow the shape of the dose curve; as a rule, active = well fitted inhibition curve with a large enough effect; inconclusive = small, poorly fitted or top-dose-only effect; inactive = no such curve, though single readings can be large or run the other way.
// one of active, inactive, no free text

# count of solved cases: 4
- CC(=O)N[C@@H](Cc1c[nH]c2ccccc12)C(=O)OCc1cc(C(F)(F)F)cc(C(F)(F)F)c1: active
- CC(C)(CO)Cc1cc(C(C)(C)C)c(O)c(C(C)(C)C)c1: active
- C[C@H](NC(=O)/C(C#N)=C/c1ccc(O)c(O)c1)c1ccccc1: inactive
- CCCc1c(OCCCOc2ccc(OCC(=O)O)cc2)ccc(C(C)=O)c1O: active

I'd appreciate the recorded outcome for c1ccc(C(NCc2cccnc2)(c2ccccc2)c2ccccc2)cc1 from this test.
active

I'd appreciate the recorded outcome for CCCC(=O)NCCc1c2n(c3ccc(OC)cc13)CCCc1ccccc1-2 from this test.
active

----------
- assayDetails: qHTS Validation Assay to Find Inhibitors of Chronic Active B-Cell Receptor Signaling (AID 485345);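 also: 0% = untreated basal cells and 100% = 10 µM MG-132 proteasome inhibitor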
- conditions: ABC-DLBCL cells, chronic BCR signaling reporter, CBG luciferase; series mostly up to 46.1 µM
Records with an inconclusive call do not appear. Active and inactive are the calls of the source. Calls follow the shape of the dose curve; as a rule, active = well fitted curve in the direction sought with a large enough effect in the main read-out, with a control signal flat (not every such curve was filed as active); inconclusive = small, poorly fitted or top-dose-only effect, or effect the other way, or a change in a side signal; inactive = no such curve, though single readings can be large or run the other way.
endpointLabel: outcome

These solved cases illustrate the format of a correct answer.
- Nc1ncnc2c1nc(Br)n2C1OC2COP(=O)(O)O[C@@H]2C1O (stereo partly specified): inactive
- C[N+](C)(C)CC=O: inactive
- Oc1cc(O)c2c(c1)O[C@H](c1ccc(O)c(O)c1)[C@@H](O)C2: inactive
- COc1cc(CNC(=O)CCCCCCC(C)C)ccc1O: inactive
- COc1cc(C(O)CO)ccc1O (stereo unspecified): inactive

Each compound below has a recorded value; state its outcome.
1. CCCCCCCCCCC/C=C\C(C)(C)/C=C\CCCC(=O)O
2. C[C@@H](NCCc1ccc(O)cc1)[C@@H](O)c1ccc(O)cc1
3. CC(N)(Cc1ccc(O)cc1)C(=O)O (stereo unspecified)
4. CC1CCN=C(N)S1 (stereo unspecified)

1: inactive; 2: inactive; 3: inactive; 4: inactive

Each compound below has a recorded value; state its outcome.
1. CCCCCCCCCCCCCCSCC(=O)O
2. CN1C2CCC1CC(OC(c1ccccc1)c1ccccc1)C2 (stereo unspecified)

inactive
inactive
